- Tested on: G9a (Homo sapiens, UniProt Q96KQ7)
- Sequence (Q96KQ7 913-1193 limits assumed): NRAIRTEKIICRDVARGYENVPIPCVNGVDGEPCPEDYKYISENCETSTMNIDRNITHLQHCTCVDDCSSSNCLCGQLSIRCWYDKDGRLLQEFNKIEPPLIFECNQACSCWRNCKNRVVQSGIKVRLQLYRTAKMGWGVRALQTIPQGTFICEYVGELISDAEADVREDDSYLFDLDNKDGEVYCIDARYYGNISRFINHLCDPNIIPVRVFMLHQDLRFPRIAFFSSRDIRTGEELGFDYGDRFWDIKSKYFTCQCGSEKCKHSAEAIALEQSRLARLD
- Experimental protocol: Surface plasmon resonance
- Format: binding
pKd: −log10 of the molar value.
Measurement name: pKd

Molecule: COc1cc2c(cc1OCCCN1CCCC1)N=C(C1CCCCC1)CN=C2NC1CCN(C(C)C)CC1 [12a]
Readout number: 4.20
